Can you tell me pIC50 for the items I'm about to list?
Tested on: hIL17
testMethodNotes: IL-17 release from differentiated primary human T-cells (IL-17A HTRF assay)
Assay type: cell-based
appliedConditions: inhibition of IL-17A levels; primary human CD4+ T cells differentiated into Th17 cells, 46-hour incubation
// field semantics: pIC50 = negative decimal log of concentration (mol/L)

Ask: What value of pIC50 has been recorded for this entry: "CC(=O)OC[C@]1(C)C(=O)C(C#N)=C[C@]2(C)C3=CC(=O)[C@@H]4[C@@H]5CC(C)(C)CC[C@]5(NC(=O)C(C)(F)F)CC[C@@]4(C)[C@]3(C)CC[C@H]21"
Reply: 7.43

Ask: Dear colleague, I am looking for the recorded pIC50 of the following compound: CC1(C)CC[C@@]23CC[C@@]4(C)[C@]5(C)CC[C@H]6C(C)(C)C(=O)C(C#N)=C[C@]6(C)C5=CC(=O)[C@]4(OC2=O)[C@@H]3C1 [Comparison Compound #6, reference compound]
Reply: 7.82

Ask: What does the record list as pIC50 for "COC(=O)[C@]12CCC(C)(C)C[C@H]1[C@H]1C(=O)C=C3[C@@]4(C)C=C(C#N)C(=O)[C@@](C)(C(N)=O)[C@@H]4CC[C@@]3(C)[C@]1(C)CC2" ?
Reply: 7.19

Ask: Reported pIC50, compound "Cc1noc([C@]23CCC(C)(C)C[C@H]2[C@H]2C(=O)C=C4[C@@]5(C)C=C(C#N)C(=O)[C@@](C)(CO)[C@@H]5CC[C@@]4(C)[C@]2(C)CC3)n1" : ____
Reply: 7.77

Ask: Bench note: what pIC50 did "COC(=O)[C@]12CCC(C)(C)C[C@H]1[C@H]1C(=O)C=C3[C@@]4(C)C=C(C#N)C(=O)[C@@](C)(C(=O)N(C)C)[C@@H]4CC[C@@]3(C)[C@]1(C)CC2" show?
Reply: 7.34

###

System: IFNγ-induced Nitric Oxide production
testMethodNotes: Nitric oxide production assay in RAW 264.7 mouse macrophages
Type: cell-based
appliedConditions: RAW264.7, suppression of IFNγ-induced NO production normalized to cell viability (WST-1), RAW 264.7, 24 hours IFNγ
Experimental: A. Nitric Oxide Production Assay and Cell Viability RAW 264.7 mouse macrophages were plated in 96-well plates at a density of 30,000 cells per well in triplicate in RPMI 1640+0.5% FBS and incubated at 37° C. with 5% CO2 in a humidified atmosphere. […] Nitric oxide concentration in media was determined using the Griess reagent system (Promega). Cell viability was determined using WST-1 reagent (Roche). […]
Please go through the items and note down their pIC50.
Give only the number. pIC50 is defined as minus log10 of concentration in molar units.

Ask: May I ask what pIC50 has been recorded for "CC(=O)OC[C@]1(C)C(=O)C(C#N)=C[C@]2(C)C3=CC(=O)[C@@H]4[C@@H]5CC(C)(C)CC[C@]5(C(=O)NCC(F)(F)F)CC[C@@]4(C)[C@]3(C)CC[C@H]21" ?
Reply: 6.82

Ask: Requested read-out: pIC50. Entry: "CC(=O)OC[C@]1(C)C(=O)C(C#N)=C[C@]2(C)C3=CC(=O)[C@@H]4[C@@H]5CC(C)(C)CC[C@]5(NC(=O)C(C)(F)F)CC[C@@]4(C)[C@]3(C)CC[C@H]21"
Reply: 6.93

Ask: Which pIC50 is reported for this compound? COCOC[C@@]1(C)C(=O)C(C#N)=C[C@]2(C)C3=CC(=O)[C@@H]4[C@@H]5CC(C)(C)CC[C@]5(C(=O)OC)CC[C@@]4(C)[C@]3(C)CC[C@@H]12 [Comparison Compound #302, reference compound]
Reply: 7.88

Ask: Item "COC(=O)[C@]12CCC(C)(C)C[C@H]1[C@H]1C(=O)C=C3[C@@]4(C)C=C(C#N)C(=O)[C@@](C)(CCO)[C@@H]4CC[C@@]3(C)[C@]1(C)CC2" has what recorded pIC50?
Reply: 7.76

Ask: # input compound: CC1(C)CC[C@@]23CC[C@@]4(C)[C@]5(C)CC[C@H]6C(C)(C)C(=O)C(C#N)=C[C@]6(C)C5=CC(=O)[C@]4(OC2=O)[C@@H]3C1 [Comparison Compound #6, reference compound] ; wanted: its pIC50
Reply: 9.15

Ask: Form field: reported pIC50 of "COC(=O)N[C@]12CCC(C)(C)C[C@H]1[C@H]1C(=O)C=C3[C@@]4(C)C=C(C#N)C(=O)[C@@](C)(COC(C)=O)[C@@H]4CC[C@@]3(C)[C@]1(C)CC2"
Reply: 6.82

Ask: What does the data say about its pIC50? Entry: "COC(=O)[C@]12CCC(C)(C)C[C@H]1[C@H]1C(=O)C=C3[C@@]4(C)C=C(C#N)C(=O)[C@](C)(O)[C@@H]4CC[C@@]3(C)[C@]1(C)CC2"
Reply: 8.04

Ask: Any idea what pIC50 was measured for "COC(=O)C[C@]1(C)C(=O)C(C#N)=C[C@]2(C)C3=CC(=O)[C@@H]4[C@@H]5CC(C)(C)CC[C@]5(C(=O)OC)CC[C@@]4(C)[C@]3(C)CC[C@H]21" ?
Reply: 6.98

Ask: Name the reported pIC50 value associated with the compound "CC1(C)CC[C@]2(NC(=O)C(C)(F)F)CC[C@]3(C)[C@H](C(=O)C=C4[C@@]5(C)[C@H]6O[C@@]6(C#N)C(=O)[C@@](C)(O)[C@@H]5CC[C@]43C)[C@@H]2C1"
Reply: 6.93

###

targetSystem: human RORγ (Homo sapiens)
Sequence (P51449 269-508 limits assumed): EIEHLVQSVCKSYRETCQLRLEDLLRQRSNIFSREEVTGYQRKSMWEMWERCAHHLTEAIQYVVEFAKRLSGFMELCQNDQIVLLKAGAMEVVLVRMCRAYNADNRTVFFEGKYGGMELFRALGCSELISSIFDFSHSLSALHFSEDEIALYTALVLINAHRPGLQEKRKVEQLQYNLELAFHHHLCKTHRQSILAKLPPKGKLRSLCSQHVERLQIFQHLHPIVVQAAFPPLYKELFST
testMethodNotes: RORγ assay (GAL4-RORγ hybrid luciferase reporter, inverse-agonist activity)
appliedConditions: GAL4-RORγ hybrid reporter cells, 23 hours
measureName: pIC50
In simple prose, pIC50 is minus the logarithm base ten of a concentration in moles per litre.

Ask: Sample COC(=O)[C@]12CCC(C)(C)C[C@H]1[C@H]1C(=O)C=C3[C@@]4(C)C=C(C#N)C(=O)[C@@](C)(COC(C)=O)[C@@H]4CC[C@@]3(C)[C@]1(C)CC2 [Compound T8] — what was its pIC50?
Reply: 6.96

Ask: Entry CC1(C)CC[C@@]23CC[C@@]4(C)[C@]5(C)CC[C@H]6[C@](C)(C(N)=O)C(=O)C(C#N)=C[C@]6(C)C5=CC(=O)[C@]4(OC2=O)[C@@H]3C1 [Compound T37] has what pIC50?
Reply: 5.87

Ask: Looking for the measured pIC50 of CCNC(=O)[C@]12CCC(C)(C)C[C@H]1[C@H]1C(=O)C=C3[C@@]4(C)C=C(C#N)C(=O)C(C)(C)[C@@H]4CC[C@@]3(C)[C@]1(C)CC2 [Comparison Compound #3, reference compound] , can you help?
Reply: 6.69

Ask: For Cc1nnc([C@]23CCC(C)(C)C[C@H]2[C@H]2C(=O)C=C4[C@@]5(C)C=C(C#N)C(=O)[C@@](C)(O)[C@@H]5CC[C@@]4(C)[C@]2(C)CC3)o1 [Compound T44] , what is its reported pIC50?
Reply: 6.63

Ask: Reported pIC50 for CC1(C)CC[C@]2(NC(=O)C(C)(F)F)CC[C@]3(C)[C@H](C(=O)C=C4[C@@]5(C)[C@H]6O[C@@]6(C#N)C(=O)[C@@](C)(O)[C@@H]5CC[C@]43C)[C@@H]2C1 [Compound T51] : what is it?
Reply: 5.77

Ask: Please look up its pIC50: COC(=O)N[C@]12CCC(C)(C)C[C@H]1[C@H]1C(=O)C=C3[C@@]4(C)C=C(C#N)C(=O)[C@@](C)(COC(C)=O)[C@@H]4CC[C@@]3(C)[C@]1(C)CC2 [Compound T41]
Reply: 6.87

Ask: Reported pIC50 for CC1(C)CC[C@@]23CC[C@@]4(C)[C@]5(C)CC[C@H]6[C@](C)(O)C(=O)C(C#N)=C[C@]6(C)C5=CC(=O)[C@]4(OC2=O)[C@@H]3C1 [Compound T33] : what is it?
Reply: 6.66

Ask: Which value of pIC50 has been reported for CC1(C)CC[C@]2(C(=O)NCC(F)(F)F)CC[C@]3(C)[C@H](C(=O)C=C4[C@@]5(C)C=C(C#N)C(=O)[C@@](C)(CO)[C@@H]5CC[C@]43C)[C@@H]2C1 [Compound T22] in the records?
Reply: 6.59

Ask: Item COC(=O)[C@]12CCC(C)(C)C[C@H]1[C@H]1C(=O)C=C3[C@@]4(C)C=C(C#N)C(=O)[C@](C)(O)[C@@H]4CC[C@@]3(C)[C@]1(C)CC2 [Compound T6] has what recorded pIC50?
Reply: 6.94

Ask: Give the measured pIC50 of COC(=O)[C@]1(C)C(=O)C(C#N)=C[C@]2(C)C3=CC(=O)[C@]45OC(=O)[C@@]6(CCC(C)(C)C[C@H]64)CC[C@@]5(C)[C@]3(C)CC[C@@H]12 [Compound T34] .
Reply: 6.57

Ask: Which pIC50 value is on record for COC(=O)[C@]12CCC(C)(C)C[C@H]1[C@H]1C(=O)C=C3[C@@]4(C)C=C(C#N)C(=O)[C@@](C)(O)[C@@H]4CC[C@@]3(C)[C@]1(C)CC2 [Compound T5] ?
Reply: 6.94

Ask: Reported pIC50 for COC(=O)[C@]12CCC(C)(C)C[C@H]1[C@H]1C(=O)C=C3[C@@]4(C)C=C(C#N)C(=O)[C@@](C)(NC(C)=O)[C@@H]4CC[C@@]3(C)[C@]1(C)CC2 [Compound T12] : what is it?
Reply: 6.38

Ask: Field request: pIC50 | item: CC1(C)CC[C@]2(NC(=O)C(C)(F)F)CC[C@]3(C)[C@H](C(=O)C=C4[C@@]5(C)C=C(C#N)C(=O)[C@@](C)(O)[C@@H]5CC[C@]43C)[C@@H]2C1 [Compound T27]
Reply: 6.39

Ask: Record request: pIC50 value, item CC1(C)CC[C@]2(NC(=O)C(C)(F)F)CC[C@]3(C)[C@H](C(=O)C=C4[C@@]5(C)C=C(C#N)C(=O)[C@@](C)(CO)[C@@H]5CC[C@]43C)[C@@H]2C1 [Compound T28]
Reply: 6.33

Ask: Entry under review: CC(=O)OC[C@]1(C)C(=O)C(C#N)=C[C@]2(C)C3=CC(=O)[C@@H]4[C@@H]5CC(C)(C)CC[C@]5(c5nc(C)no5)CC[C@@]4(C)[C@]3(C)CC[C@H]21 [Compound T46] . Reported pIC50?
Reply: 6.94

Ask: For the molecule shown here, COC(=O)[C@]12CCC(C)(C)C[C@H]1[C@H]1C(=O)C=C3[C@@]4(C)C=C(C#N)C(=O)[C@@](C)(CCO)[C@@H]4CC[C@@]3(C)[C@]1(C)CC2 [Compound T19] , give the reported pIC50.
Reply: 6.63

Ask: Data request, read-out pIC50, for COC(=O)[C@]12CCC(C)(C)C[C@H]1[C@H]1C(=O)C=C3[C@@]4(C)C=C(C#N)C(=O)[C@](C)(C(=O)OC)[C@@H]4CC[C@@]3(C)[C@]1(C)CC2 [Compound T3]
Reply: 6.77

Ask: I have this molecule here, COC(=O)[C@]12CCC(C)(C)C[C@H]1[C@H]1C(=O)C=C3[C@@]4(C)C=C(C#N)C(=O)[C@@](C)(C(F)F)[C@@H]4CC[C@@]3(C)[C@]1(C)CC2 [Compound T4] , and I need its recorded pIC50.
Reply: 6.63

Ask: Which measured pIC50 value corresponds to COCC[C@]1(C)C(=O)C(C#N)=C[C@]2(C)C3=CC(=O)[C@@H]4[C@@H]5CC(C)(C)CC[C@]5(C(=O)OC)CC[C@@]4(C)[C@]3(C)CC[C@H]21 [Compound T17] ?
Reply: 6.60

meta.source: patent US11584775B2
